A collection of compounds and their measured pKi
Biological target: Adenosine receptor A3 (Homo sapiens, UniProt P0DMS8)
Sequence (P0DMS8 whole entry): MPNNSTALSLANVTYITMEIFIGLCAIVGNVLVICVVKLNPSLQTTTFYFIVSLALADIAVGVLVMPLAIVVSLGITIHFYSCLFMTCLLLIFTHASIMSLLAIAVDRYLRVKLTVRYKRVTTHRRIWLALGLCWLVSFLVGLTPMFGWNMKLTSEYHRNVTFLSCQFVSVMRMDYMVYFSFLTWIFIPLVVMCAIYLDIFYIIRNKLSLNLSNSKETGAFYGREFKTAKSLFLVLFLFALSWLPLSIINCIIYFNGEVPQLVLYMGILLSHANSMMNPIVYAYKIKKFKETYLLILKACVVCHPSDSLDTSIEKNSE
Scale: pKi equals -log10([C]), with [C] in mol/L.

Previously resolved entries follow.
[
  {
    "Compound": "O[C@@H]1[C@H](O)[C@@H](CCl)O[C@H]1n1cnc2c(N[C@H]3C[C@H]4CC[C@@H]3C4)ncnc21",
    "Reported Measurement": 6.45
  },
  {
    "Compound": "OC[C@@]12C[C@@H]1[C@@H](n1cnc3c(N[C@H]4C[C@H]5CC[C@@H]4C5)nc(Cl)nc31)[C@H](O)[C@@H]2O",
    "Reported Measurement": 6.54
  }
]

Request: pKi, test system Adenosine receptor A3 (Homo sapiens, UniProt P0DMS8), entry O[C@@H]1[C@H](O)[C@@H](CCl)O[C@H]1n1cnc2c(NC3C[C@H]4CC[C@@H]3C4)ncnc21 (mixture of isomers)
5.89

###

Assay: Half life in Sprague-Dawley rat at 1 to 10 mg/kg, po
Format: ADME, organism-based
Settings: in vivo
Assay Readout: half-life

Endpoint output: half-life of "OC[C@H]1O[C@@H](n2cnc3c(NC(C4CCC4)C4CCC4)ncnc32)[C@H](O)[C@@H]1O" . Value?
0.9 to 1.3 h

###

Experiment: Elimination half life in CD1 mouse at 1 to 10 mg/kg, po
Type: ADME, organism-based
Conditions: in vivo
Assay Readout: beta t1/2

Give its beta t1/2 value. Item: "O[C@@H]1[C@H](O)[C@@H]2C[C@@H]2[C@H]1n1cnc2c(NC(C3CC3)C3CC3)nc(Cl)nc21"
5 to 11 h

###

Test system: Mus musculus
Assay: Induction of hypothermia in C57BL/6J mouse assessed as activity counts at 3 mg/kg, ip measured at 60 mins post dose (reference value: 15.5 +/- 5.5)
Format: functional
Measured Activity of individual entries
Could you respond with only the numeric value?

Solved cases (3 shown):
[
  {
    "Record Smiles": "OC[C@H]1O[C@@H](n2cnc3c(NC(C4CCC4)C4CCC4)nc(Cl)nc32)[C@H](O)[C@@H]1O",
    "Activity": 13.5
  },
  {
    "Record Smiles": "OC[C@@]12C[C@@H]1[C@@H](n1cnc3c(NC(C4CCC4)C4CCC4)ncnc31)[C@H](O)[C@@H]2O",
    "Activity": 18.1
  },
  {
    "Record Smiles": "OC[C@H]1O[C@@H](n2cnc3c(NC(C4CCC4)C4CCC4)ncnc32)[C@H](O)[C@@H]1O",
    "Activity": 6.6
  }
]

Okay, next one:
Would you mind telling me what Activity value was observed for "O[C@@H]1[C@H](O)[C@@H]2C[C@@H]2[C@H]1n1cnc2c(NC(C3CC3)C3CC3)nc(Cl)nc21" ?
5.5

###

Target: Adenosine receptor A1 (Homo sapiens)
Sequence (P30542 whole entry): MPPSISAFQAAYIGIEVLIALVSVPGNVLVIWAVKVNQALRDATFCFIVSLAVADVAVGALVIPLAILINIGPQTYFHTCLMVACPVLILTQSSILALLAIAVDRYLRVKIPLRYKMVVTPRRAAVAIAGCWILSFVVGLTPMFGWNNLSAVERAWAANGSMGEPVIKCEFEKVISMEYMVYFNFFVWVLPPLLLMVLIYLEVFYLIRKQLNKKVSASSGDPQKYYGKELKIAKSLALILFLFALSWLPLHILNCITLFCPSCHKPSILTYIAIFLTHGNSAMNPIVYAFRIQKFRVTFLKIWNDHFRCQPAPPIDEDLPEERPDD
Listing of recorded pKi by entry.
Interpret pKi as the negative base-10 log of the concentration measured in mol/L.

[
  {
    "Record Smiles": "Nc1nc(Cl)nc2c1ncn2[C@H]1[C@H](O)[C@H](O)[C@]2(CCl)C[C@H]12",
    "pKi": 8.12
  }
]

Lab note: need pKi for "OC[C@@]12C[C@@H]1[C@@H](n1cnc3c(N[C@H]4C[C@H]5CC[C@@H]4C5)nc(Cl)nc31)[C@H](O)[C@@H]2O" on Adenosine receptor A1 (Homo sapiens), anyone have it?
7.63

###

Molecular target: Adenosine receptor A2a (Homo sapiens, UniProt P29274)
Sequence (P29274 whole entry): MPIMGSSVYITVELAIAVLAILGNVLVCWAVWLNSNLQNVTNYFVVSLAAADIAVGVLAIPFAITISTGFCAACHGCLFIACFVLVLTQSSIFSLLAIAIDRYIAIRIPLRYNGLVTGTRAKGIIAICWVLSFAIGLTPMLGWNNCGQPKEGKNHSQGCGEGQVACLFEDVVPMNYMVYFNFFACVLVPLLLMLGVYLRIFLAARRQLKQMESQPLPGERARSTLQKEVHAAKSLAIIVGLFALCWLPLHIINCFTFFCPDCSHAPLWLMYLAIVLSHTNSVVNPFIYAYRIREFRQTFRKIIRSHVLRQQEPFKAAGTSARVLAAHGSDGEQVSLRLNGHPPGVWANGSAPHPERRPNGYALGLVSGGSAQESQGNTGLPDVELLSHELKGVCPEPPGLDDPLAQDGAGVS
Assay: Displacement of [3H]2-[p-(2-carboxyethyl)phenylethylamino]-5-N-ethylcarboxamidoadenosine from human A2A adenosine receptor expressed in HEK293 cell membranes at 10 uM after 60 mins by scintillation proximity assay relative to adenosine 5-N-ethyluronamide
Assay Readout: inhibition (%)
Answer in %, number only, no unit symbol.

Recorded inhibition, per entry:
[
  {
    "Record Smiles": "O[C@H]1[C@H](n2cnc3c(NC(C4CCC4)C4CCC4)ncnc32)[C@H]2C[C@@]2(CCl)[C@H]1O",
    "Study Target": "Adenosine receptor A2a (Homo sapiens, UniProt P29274)",
    "Assay Readout": "inhibition",
    "Unit Info": "%",
    "Reported Measurement": 38
  },
  {
    "Record Smiles": "OC[C@@]12C[C@@H]1[C@@H](n1cnc3c(NC(C4CCC4)C4CCC4)ncnc31)[C@H](O)[C@@H]2O",
    "Study Target": "Adenosine receptor A2a (Homo sapiens, UniProt P29274)",
    "Assay Readout": "inhibition",
    "Unit Info": "%",
    "Reported Measurement": 34
  },
  {
    "Record Smiles": "NC(=O)c1ncn([C@@H]2O[C@H](CO)[C@@H](O)[C@H]2O)n1",
    "Study Target": "Adenosine receptor A2a (Homo sapiens, UniProt P29274)",
    "Assay Readout": "inhibition",
    "Unit Info": "%",
    "Reported Measurement": 23
  },
  {
    "Record Smiles": "O[C@H]1[C@H](n2cnc3c(N[C@H]4C[C@H]5CC[C@@H]4C5)nc(Cl)nc32)[C@H]2C[C@@]2(CCl)[C@H]1O",
    "Study Target": "Adenosine receptor A2a (Homo sapiens, UniProt P29274)",
    "Assay Readout": "inhibition",
    "Unit Info": "%",
    "Reported Measurement": 54
  },
  {
    "Record Smiles": "CCSC[C@H]1O[C@@H](n2cnc3c(NC(C4CCC4)C4CCC4)ncnc32)[C@H](O)[C@@H]1O",
    "Study Target": "Adenosine receptor A2a (Homo sapiens, UniProt P29274)",
    "Assay Readout": "inhibition",
    "Unit Info": "%",
    "Reported Measurement": 30
  },
  {
    "Record Smiles": "O[C@H]1[C@H](n2cnc3c(NC(C4CCC4)C4CCC4)nc(Cl)nc32)[C@H]2C[C@@]2(CSc2ccccc2F)[C@H]1O",
    "Study Target": "Adenosine receptor A2a (Homo sapiens, UniProt P29274)",
    "Assay Readout": "inhibition",
    "Unit Info": "%",
    "Reported Measurement": 22
  }
]

Requested read-out: inhibition. Entry: "CCOC(=O)[C@@]12C[C@@H]1[C@@H](n1cnc3c(NC(C4CC4)C4CC4)nc(Cl)nc31)[C@@H]1OC(C)(C)O[C@@H]12"
15

###

Target: Adenosine receptor A1 (Mus musculus, UniProt Q60612)
Sequence (Q60612 whole entry): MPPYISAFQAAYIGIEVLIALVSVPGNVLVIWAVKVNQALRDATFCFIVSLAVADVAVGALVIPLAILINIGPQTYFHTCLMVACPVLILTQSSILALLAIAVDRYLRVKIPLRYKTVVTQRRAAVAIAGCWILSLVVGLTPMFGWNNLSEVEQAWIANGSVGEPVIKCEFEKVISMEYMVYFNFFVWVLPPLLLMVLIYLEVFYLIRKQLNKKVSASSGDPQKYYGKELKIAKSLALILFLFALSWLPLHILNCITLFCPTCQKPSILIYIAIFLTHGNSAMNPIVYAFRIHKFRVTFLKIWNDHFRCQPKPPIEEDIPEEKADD
Assay Readout: Ki (nM)
Quick note: give the figure in nM, leave out the unit.

[
  {
    "Record Smiles": "OC[C@@]12C[C@@H]1[C@@H](n1cnc3c(N[C@H]4C[C@H]5CC[C@@H]4C5)nc(Cl)nc31)[C@H](O)[C@@H]2O",
    "Study Target": "Adenosine receptor A1 (Mus musculus, UniProt Q60612)",
    "Ki / nM": 1.05
  }
]

Could you share which Ki value was measured for "OC[C@H]1O[C@@H](n2cnc3c(N[C@H]4C[C@H]5CC[C@@H]4C5)ncnc32)[C@H](O)[C@@H]1O" ?
0.14

Try the compound "CNC(=O)[C@]12C[C@@H]1[C@@H](n1cnc3c(NC4CCCC4)nc(Cl)nc31)[C@H](O)[C@@H]2O"
0.68

Next entry: "O[C@@H]1[C@H](O)[C@@H]2C[C@@H]2[C@H]1n1cnc2c(NC(C3CC3)C3CC3)nc(Cl)nc21"
5.2

###

Biological target: Adenosine receptor A2a (Homo sapiens, UniProt P29274)
Experiment: Displacement of [3H]2-[p-(2-carboxyethyl)phenylethylamino]-5-N-ethylcarboxamidoadenosine from human A2A adenosine receptor expressed in HEK293 cell membranes at 10 uM after 60 mins by scintillation proximity assay relative to adenosine 5-N-ethyluronamide
Readings of inhibition for the listed molecules
The figure you give is taken to be in %; do not add the unit.

Some molecules with known inhibition results, for comparison:
[
  {
    "Record Smiles": "OC[C@@]12C[C@@H]1[C@@H](n1cnc3c(N[C@H]4C[C@H]5CC[C@@H]4C5)nc(Cl)cc31)[C@H](O)[C@@H]2O",
    "Unit Info": "%",
    "inhibition": 29
  },
  {
    "Record Smiles": "OC[C@@]12C[C@@H]1[C@@H](n1cnc3c(NC(C4CCC4)C4CCC4)nc(Cl)nc31)[C@H](O)[C@@H]2O",
    "Unit Info": "%",
    "inhibition": 55
  },
  {
    "Record Smiles": "NC(=O)c1ncn([C@H]2[C@H](O)[C@H](O)[C@]3(CO)C[C@H]23)n1",
    "Unit Info": "%",
    "inhibition": 11
  }
]

# lookup: inhibition of "CCOC(=O)[C@@]12C[C@@H]1[C@@H](n1cnc3c(NC(C4CCC4)C4CCC4)nc(Cl)nc31)[C@H](O)[C@@H]2O"
57

Input "COC(=O)c1ncn([C@H]2[C@H](O)[C@H](O)[C@]3(CO)C[C@H]23)n1"
14

Please do the same for "O[C@H]1[C@H](n2cnc3c(NC(C4CCC4)C4CCC4)nc(Cl)nc32)[C@H]2C[C@@]2(CCl)[C@H]1O" as well.
17

Do the same for "Nc1ncnc2c1ncn2[C@@H]1O[C@H](C(=O)O)[C@@H](O)[C@H]1O" please
11

Then this molecule: "O[C@@H]1[C@H](O)[C@@H]2C[C@@H]2[C@H]1n1cnc2c(NC(C3CCC3)C3CCC3)nc(Cl)nc21"
46

The reported numbers originate from ChEMBL document CHEMBL4368904.
